FYI, the data here is from patent US20110178104A1.

# Tested on: UFH
# test-summary: FXa amidolytic assay (Example 10), UFH
# experimental-context: read-out: Heparin FXa uM EC50; UFH 0.03 units/mL; human antithrombin, bovine Factor Xa
Starred links: 1 amine or outer side, 2 acyl side, 3 side chain; linkers in the order of their positions; H or OH if unused. Non-standard residues stand in square brackets, D forms with d. Residues, ends and D or L forms follow the SMILES beside them. *: point of attachment. NH(3-CONH2-4-OMe-phenyl) = COc1ccc(N*)cc1C(N)=O; 3Abz(6-OMe) = COc1ccc(N[*:1])cc1C(=O)[*:2]
Please go through the items and note down their EC50.
Write down the numeric answer in µM and omit the unit.

Recorded EC50 (molecule COc1ccc(NC(=O)[C@@H](CCCNC(=N)N)NC(=O)c2cc(NC(=O)[C@@H](CCCNC(=N)N)NC(=O)c3cc(NC(=O)[C@@H](CCCNC(N)=O)NC(=O)c4cc(NC(=O)[C@H](N)CCCNC(=N)N)ccc4OC)ccc3OC)ccc2OC)cc1C(N)=O ): 0.153

Recorded EC50 (molecule COc1cc(OC)c(C(=O)N[C@H]2CC[C@@H](NC(=O)c3cc(C(=O)N[C@H]4CC[C@@H](NC(=O)c5cc(C(=O)NCCN)c(OC)cc5OC)CC4)c(OC)cc3OC)CC2)cc1C(=O)NCCN ): 0.777

Recorded EC50 (molecule COc1ccc(NC(=O)[C@H](CCCNC(=N)N)NC(=O)c2cc(NC(=O)[C@H](CCCNC(=N)N)NC(=O)c3cc(NC(=O)[C@H](CCCNC(=N)N)NC(=O)c4cc(NC(=O)[C@@H](N)CCCNC(=N)N)ccc4OC)ccc3OCC(=O)O)ccc2OC)cc1C(=O)N[C@@H](Cc1c[nH]c2ccccc12)C(N)=O ): 0.196

Recorded EC50 (molecule COc1ccc(NC(=O)[C@H](CCCCN)NC(=O)c2cc(NC(=O)[C@H](CCCCN)NC(=O)c3cc(NC(=O)[C@H](CCCCN)NC(=O)c4cc(NC(=O)[C@H](CCCCN)NC(=O)[C@@H](N)Cc5ccccc5)ccc4OC)ccc3OC)ccc2OC)cc1C(N)=O [Compound 357] (H-FK[3Abz(6-OMe)]K[3Abz(6-OMe)]K[3Abz(6-OMe)]K-{NH(3-CONH2-4-OMe-phenyl)}) ): 0.187

Recorded EC50 (molecule COc1ccc(NC(=O)[C@H](CCCCN)NC(=O)c2cc(NC(=O)[C@H](CCCCN)NC(=O)c3cc(NC(=O)[C@H](CCCCN)NC(=O)c4cc(NC(=O)[C@H](CCCCN)NC(=O)c5c[nH]c6ccccc56)ccc4OC)ccc3OC)ccc2OCC(=O)O)cc1C(N)=O ): 0.291

Recorded EC50 (molecule COc1ccc(NC(=O)[C@H](CCCCN)NC(=O)c2cc(NC(=O)[C@H](CCCCN)NC(=O)c3cc(NC(=O)[C@H](CCCCN)NC(=O)c4cc(NC(=O)[C@@H](N)CCCCN)ccc4OC)ccc3OC)ccc2OC)cc1C(=O)N[C@@H](Cc1ccccc1)C(=O)O ): 0.179

Recorded EC50 (molecule COc1cc(OC)c(C(=O)NCCNC(=O)c2cc(C(=O)NCCNC(=O)c3cc(C(=O)NCCN)c(OC)cc3OC)c(OC)cc2OC)cc1C(=O)NCCN ): 19.4

Recorded EC50 (molecule COc1ccc(NC(=O)[C@H](CCCCN)NC(=O)c2cc(NC(=O)[C@H](CCCCN)NC(=O)c3cc(NC(=O)[C@H](CCCCN)NC(=O)c4cc(NC(=O)[C@H](CCCCN)NC(=O)c5ccccc5)ccc4OC)ccc3OC)ccc2OCC(=O)O)cc1C(N)=O ): 0.214
